# key: entry, value: ring closure, isolated yield
- TEST METHOD NOTES: SuFEx S-O bond formation: di-sulfonimidoyl fluoride (mixture of diastereomers) + diphenol (1:1), DBU 2.1 equiv, [1+1] macrocyclisation, one pot
- PARTICULARS: the molecule shown is the open-chain precursor; 22-membered ring; MeCN; 20.0 mM; 50.0 °C; 3.0 h

COMPOUND | UNIT SYMBOL | ring closure, isolated yield
Cc1ccc(S(=O)(F)=NC(=O)c2ccc(C(=O)N=S(=O)(Oc3ccc(SSc4ccc(O)cc4)cc3)c3ccc(C)cc3)cc2)cc1 (stereo not shown) | % | 96
CCC(c1ccc(O)cc1)C(CC)c1ccc(OS(=O)(=NC(=O)c2ccc(C(=O)N=S(=O)(F)c3ccc(C)cc3)cc2)c2ccc(C)cc2)cc1 (stereo not shown) | % | 61
Cc1ccc(S(=O)(F)=NC(=O)c2cccc(C(=O)N=S(=O)(Oc3cccc(Oc4cccc(Oc5cccc(O)c5)c4)c3)c3ccc(C)cc3)c2)cc1 (stereo not shown) | % | 69
Cc1ccc(S(=O)(F)=NC(=O)c2ccc(C(=O)N=S(=O)(Oc3ccccc3CNCCNCc3ccccc3O)c3ccc(C)cc3)cc2)cc1 (stereo not shown) | % | 87
